Target: T1, Bio-P19 member A2E-1 (chain 2: C-terminal BirA substrate peptide (BSP), enzymatically biotinylated; its letters are not printed in the patent and it is left out)
T1 construct: also called biotinylated control peptide A2E-1/HLA-A*02:01 monomer
T1 sequence (b2m, as listed by the source): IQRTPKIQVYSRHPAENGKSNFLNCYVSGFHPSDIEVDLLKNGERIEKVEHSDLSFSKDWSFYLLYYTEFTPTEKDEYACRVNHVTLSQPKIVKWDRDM
Experiment: phage ELISA, streptavidin plate, anti-M13-HRP
PROPERTY: binding result

BINDER: PSA146/HLA-A*02:01-specific scFv phage clone #13 (scFv, V domains shown) VH: QVQLVQSGAEVKKPGASVKVSCKASGYTFTSYYMHWVRQAPGQGLEWMGGFDPEDGETIYAQKFQGRVTMTEDTSTDTAYMGLSSLRSEDTAVYYCARYSYDYWGQGTLVTVSS VL: QAVVTQEPSLTVSPGGTVTLTCASSTGAVTSGYYPNWFQQKPGQAPRALIYSTSNKHSWTPARFSGSLLGGKAALTLSGVQPEDEAEYYCLLYYGGAYVFGTGTKVTVLG
binding result: no binding
//
BINDER: PSA146/HLA-A*02:01-specific scFv phage clone #17 (scFv, V domains shown) VH: QMQLVQSGAEVKKPGESLKISCKGSGYSFTSYWIGWVRQMPGKGLEWMGIIYPGDSDTRYSPSFQGQVTISADKSISTAYLQWSSLKASDTAMYYCARLVVPDAFDIWGQGTMVTVSS VL: QSVVTQPPSVSAAPGQKVTISCSGSSSNIGNNYVSWYQQLPGTAPKLLIYDNYKRPSGIPDRFSGSKSGTSATLGITGLQTGDEADYYCGTWDSSLSAGVFGGGTKLTVLG
binding result: no binding
//
BINDER: PSA146/HLA-A*02:01-specific scFv phage clone #18 (scFv, V domains shown) VH: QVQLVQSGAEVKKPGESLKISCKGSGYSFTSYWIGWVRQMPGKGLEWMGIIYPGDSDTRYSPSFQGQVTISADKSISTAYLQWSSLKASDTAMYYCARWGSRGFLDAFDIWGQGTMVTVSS VL: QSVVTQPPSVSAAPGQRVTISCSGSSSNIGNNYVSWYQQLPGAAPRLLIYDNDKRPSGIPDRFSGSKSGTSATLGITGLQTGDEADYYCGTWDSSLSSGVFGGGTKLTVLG
binding result: no binding
//
BINDER: PSA146/HLA-A*02:01-specific scFv phage clone #14 (scFv, V domains shown) VH: EVQLVQSGAEVKKPGASVKVSCKASGYTFTGYFMHWVRQAPGQGLEWMGGFDPEDGETIYAQKFQGRVTMTEDTSTDTAYMELSSLRSEDTAVYYCARYSYDLWGQGTLVTVSS VL: QTVVTQEPSLTVSPGGTVTLTCASSTGAVTSGYYPNWFQQKPGQAPRALIYSTSNKHSWTPARFSGSLLGGKAALTLSGVQPEDEAEYYCLLYYGGAQWVFGGGTKLTVLG
binding result: no binding
//
BINDER: PSA146/HLA-A*02:01-specific scFv phage clone #9 (scFv, V domains shown) VH: QVQLVQSGAEVKKPGASVKVSCKASGYTFTSYGISWVRQAPGQGLEWMGWISAYNGNTNYAQKLQGRVTMTTDTSTSTAYMELRSLRSDDTAVYYCARSSQYYVWDSWGQGTLVTVSS VL: QSVVTQPPSVSGAPGQRVTISCTGSSSNFGAGYDVHWYQQLPGTAPKLLIYGNSNRPSGVPDRFSGSKSGTSASLAITGLQAEDEADYYCQSYDSSLSGWVFGGGTKLTVLG
binding result: no binding
//
BINDER: PSA146/HLA-A*02:01-specific scFv phage clone #6 (scFv, V domains shown) VH: EVQLVQSGAEVKKPGASVKVSCKASGYTFTGYYIHWVRQAPGQGLEWMGGFDPEDGETIYAQKFQDRVTMTADTSTDTAYMELSSLRSEDTAVYYCARYGFDYWGQGTLVTVSS VL: QAVVTQEPSLTVSPGGTVTLTCASSTGAVTSGYYPNWFQLKPGQAPRALIYTTGKKHSWAPARFSGSLLGGKAALTLSGVQPEDEAEYYCLLYSGGVWVFGGGTKLTVLG
binding result: no binding

Then there is this binder:
Query (binder): PSA146/HLA-A*02:01-specific scFv phage clone #12 (scFv, V domains shown) VH: QMQLVQSGSEVKKPGASVKVSCKASGYTFTSYGISWVRQAPGQGLEWMGWISAYNGNTDYVQKLQGRVTMTTDTSTNTAYMELGSLGSDDTAVYYCARTNYNKYDIWGQGTLVTVSS VL: QSVLTQPPSVSGAPGQRVTISCTGSSSNIGAGYDVHWYQQLPGTAPKLLIYGNSNRPSGVPDRFSGSKSGTSASLAITGLQAEDEADYYCQSYDSSLSEVFGTGTKVTVLG ; field requested: binding result
no binding
